B1: library; a variant is named by its letters at N, in order (parent)
chain: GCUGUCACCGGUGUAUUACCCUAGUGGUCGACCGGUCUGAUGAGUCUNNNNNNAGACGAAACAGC

Variants of: B1
Assay: FACS-Seq fitted mean relative fluorescence mCherry/BFP with ligand (log10 relative fluorescence); ligand: hypoxanthine (xanthine aptamer); ligand concentration (+) FACS-Seq: 5 mM; higher = higher reporter protein expression
Settings: HEK293T, ligand present: yes
Catalogue of variants with associated FACS-Seq fitted mean (log10)

{"Mutant": "UACGGC", "FACS-Seq fitted mean (log10)": 0.542}
{"Mutant": "AACAGU", "FACS-Seq fitted mean (log10)": 0.421}
{"Mutant": "GUGCAG", "FACS-Seq fitted mean (log10)": 0.427}
{"Mutant": "ACGAGA", "FACS-Seq fitted mean (log10)": 0.488}
{"Mutant": "GUGUUG", "FACS-Seq fitted mean (log10)": 0.559}
{"Mutant": "CAAUAC", "FACS-Seq fitted mean (log10)": 0.507}
{"Mutant": "GUGUAU", "FACS-Seq fitted mean (log10)": 0.33}
{"Mutant": "AGGAAA", "FACS-Seq fitted mean (log10)": 0.42}
{"Mutant": "UAAGUG", "FACS-Seq fitted mean (log10)": 0.146}
{"Mutant": "CAAGCC", "FACS-Seq fitted mean (log10)": 0.404}
{"Mutant": "UGAGCG", "FACS-Seq fitted mean (log10)": 0.323}
{"Mutant": "UCAAAG", "FACS-Seq fitted mean (log10)": -0.184}
{"Mutant": "UGAAGA", "FACS-Seq fitted mean (log10)": 0.576}
{"Mutant": "UCAUAA", "FACS-Seq fitted mean (log10)": 0.622}
{"Mutant": "AUUCCG", "FACS-Seq fitted mean (log10)": 0.296}
{"Mutant": "CGAGAG", "FACS-Seq fitted mean (log10)": 0.258}
{"Mutant": "GGGAGA", "FACS-Seq fitted mean (log10)": 0.516}
{"Mutant": "GUGCAU", "FACS-Seq fitted mean (log10)": -0.852}
{"Mutant": "AUGCAG", "FACS-Seq fitted mean (log10)": 0.682}
{"Mutant": "UACCUA", "FACS-Seq fitted mean (log10)": 0.369}
{"Mutant": "GGCAAC", "FACS-Seq fitted mean (log10)": -0.0947}
{"Mutant": "AGCACC", "FACS-Seq fitted mean (log10)": -0.00735}
{"Mutant": "CAGGUA", "FACS-Seq fitted mean (log10)": 0.148}
{"Mutant": "GUAGGG", "FACS-Seq fitted mean (log10)": 0.53}
{"Mutant": "AGACUC", "FACS-Seq fitted mean (log10)": 0.646}
{"Mutant": "CCAUUC", "FACS-Seq fitted mean (log10)": 0.309}
{"Mutant": "GAGGAA", "FACS-Seq fitted mean (log10)": 0.581}
{"Mutant": "GUAUCU", "FACS-Seq fitted mean (log10)": 0.536}
{"Mutant": "GGGCUG", "FACS-Seq fitted mean (log10)": 0.495}
{"Mutant": "AGCCUG", "FACS-Seq fitted mean (log10)": 0.67}
{"Mutant": "CGAAGG", "FACS-Seq fitted mean (log10)": 0.39}
{"Mutant": "GGAGCG", "FACS-Seq fitted mean (log10)": 0.456}
{"Mutant": "CAAUGU", "FACS-Seq fitted mean (log10)": 0.48}
{"Mutant": "GGUUGG", "FACS-Seq fitted mean (log10)": 0.558}
{"Mutant": "AAGGAU", "FACS-Seq fitted mean (log10)": 0.732}
{"Mutant": "GAAGCG", "FACS-Seq fitted mean (log10)": 0.56}
{"Mutant": "AGAUGU", "FACS-Seq fitted mean (log10)": 0.748}
{"Mutant": "UAACAG", "FACS-Seq fitted mean (log10)": 0.581}
{"Mutant": "CACAUA", "FACS-Seq fitted mean (log10)": 0.656}
{"Mutant": "GGGAGG", "FACS-Seq fitted mean (log10)": 0.374}
{"Mutant": "ACGGAU", "FACS-Seq fitted mean (log10)": 0.537}
{"Mutant": "UUGAAA", "FACS-Seq fitted mean (log10)": 0.614}
{"Mutant": "UUGCUU", "FACS-Seq fitted mean (log10)": 0.0746}
{"Mutant": "AACCCG", "FACS-Seq fitted mean (log10)": 0.751}
{"Mutant": "GCGUGG", "FACS-Seq fitted mean (log10)": 0.684}
{"Mutant": "AUACUG", "FACS-Seq fitted mean (log10)": 0.634}
{"Mutant": "UAACCG", "FACS-Seq fitted mean (log10)": 0.756}
{"Mutant": "CCGAGA", "FACS-Seq fitted mean (log10)": 0.648}
{"Mutant": "AAUAAA", "FACS-Seq fitted mean (log10)": 0.252}
{"Mutant": "UGUCGU", "FACS-Seq fitted mean (log10)": 0.591}
{"Mutant": "ACUAUA", "FACS-Seq fitted mean (log10)": 0.693}
{"Mutant": "ACGACA", "FACS-Seq fitted mean (log10)": 0.613}
{"Mutant": "GCGAAA", "FACS-Seq fitted mean (log10)": 0.404}
{"Mutant": "UGCAAG", "FACS-Seq fitted mean (log10)": 0.179}
{"Mutant": "UAAAUA", "FACS-Seq fitted mean (log10)": 0.49}
{"Mutant": "GAUAGG", "FACS-Seq fitted mean (log10)": 0.506}
{"Mutant": "ACAAAU", "FACS-Seq fitted mean (log10)": 0.331}
{"Mutant": "AUGAAC", "FACS-Seq fitted mean (log10)": 0.583}
{"Mutant": "GAGACA", "FACS-Seq fitted mean (log10)": 0.548}
{"Mutant": "GGUCUA", "FACS-Seq fitted mean (log10)": 0.586}
{"Mutant": "GUUUUG", "FACS-Seq fitted mean (log10)": 0.551}
{"Mutant": "AUGUAC", "FACS-Seq fitted mean (log10)": 0.149}
{"Mutant": "UCAGCG", "FACS-Seq fitted mean (log10)": 0.656}
{"Mutant": "AAUAGU", "FACS-Seq fitted mean (log10)": 0.505}
{"Mutant": "GAGAUG", "FACS-Seq fitted mean (log10)": 0.707}
{"Mutant": "AAGAUU", "FACS-Seq fitted mean (log10)": 0.11}
{"Mutant": "UGCUGA", "FACS-Seq fitted mean (log10)": 0.0171}
{"Mutant": "AAAACG", "FACS-Seq fitted mean (log10)": 0.616}
{"Mutant": "AGAUAC", "FACS-Seq fitted mean (log10)": 0.699}
{"Mutant": "CUCGGU", "FACS-Seq fitted mean (log10)": -0.785}
{"Mutant": "GAUGCC", "FACS-Seq fitted mean (log10)": 0.569}
{"Mutant": "GAGUUG", "FACS-Seq fitted mean (log10)": 0.503}
{"Mutant": "CAGUGG", "FACS-Seq fitted mean (log10)": 0.629}
{"Mutant": "GUGCAA", "FACS-Seq fitted mean (log10)": 0.57}
{"Mutant": "AAAGGU", "FACS-Seq fitted mean (log10)": 0.526}
{"Mutant": "CGCAAA", "FACS-Seq fitted mean (log10)": 0.491}
{"Mutant": "CGAUUU", "FACS-Seq fitted mean (log10)": 0.522}
{"Mutant": "ACCUGA", "FACS-Seq fitted mean (log10)": 0.323}
{"Mutant": "CGAAUA", "FACS-Seq fitted mean (log10)": 0.656}
{"Mutant": "AUUGGA", "FACS-Seq fitted mean (log10)": 0.374}
{"Mutant": "AUGACG", "FACS-Seq fitted mean (log10)": 0.373}
{"Mutant": "ACCUAG", "FACS-Seq fitted mean (log10)": -0.308}
{"Mutant": "UCGGCG", "FACS-Seq fitted mean (log10)": 0.666}
{"Mutant": "CCUACA", "FACS-Seq fitted mean (log10)": 0.603}
{"Mutant": "CUAGAU", "FACS-Seq fitted mean (log10)": 0.0723}
{"Mutant": "UGCCUC", "FACS-Seq fitted mean (log10)": 0.659}
{"Mutant": "AACAUA", "FACS-Seq fitted mean (log10)": 0.63}
{"Mutant": "GACUAA", "FACS-Seq fitted mean (log10)": 0.515}
{"Mutant": "GGCGCA", "FACS-Seq fitted mean (log10)": 0.602}
{"Mutant": "CGCGUA", "FACS-Seq fitted mean (log10)": 0.659}
{"Mutant": "GACGAU", "FACS-Seq fitted mean (log10)": 0.672}
